For each entry below, report its TGI value.
# Tested on: HOP-92 NSCLC
# ASSAY_DETAILS: NCI tumour cell line growth inhibition, 48 h

Known results for molecules:
> print(dat)
                                   molecule           tgt  observation.type   result
1  CCCNC(=O)OCc1c(COC(=O)NCCC)c(-c2ccc(Cl)c(Cl)c2)n2c1CCC2  HOP-92 NSCLC               TGI  9.98 µM
2  CCCCCCCCCCCCOC1C(CNCC2OC3OC(C)(C)OC3C2NC(=O)Nc2ccc(C(=O)OCC)cc2)OC2OC(C)(C)OC21 (centres undefined)  HOP-92 NSCLC               TGI  3.92 µM

Kindly give each listed record's TGI.
1. O=C(O)/C=C/C(=O)Nc1ncn[nH]1
2. CN1CN(c2ccccc2)C2(CCN(CCCC3(c4cccs4)OCCO3)CC2)C1=O
3. N#Cc1cnn2ccn(C3OC(COC(=O)c4ccccc4)C(OC(=O)c4ccccc4)C3OC(=O)c3ccccc3)c12 (centres undefined)
4. NNC(=O)c1cnn(-c2ccnc3c(C(F)(F)F)cccc23)c1N
5. CC(=O)/C=C/c1cccc(N=S)c1
6. CCCCn1/c(=N/C(=S)N(C)C)ss/c1=N\C(=S)N(C)C
7. COc1cc([C@@H]2c3cc4c(cc3[C@@H](NC(=O)c3cccc([N+](=O)[O-])c3)C3COC(=O)[C@@H]32)OCO4)cc(OC)c1O (some centres undefined)

A:
> 100 µM
> 100 µM
> 31.6 µM
> 100 µM
> 100 µM
> 100 µM
22.8 µM
